pIC50 listing for selected compounds.
# system tested: cIAP1-BIR3 (Homo sapiens, UniProt Q13490)
# Construct: cIAP1-BIR3
# Sequence (Q13490 253-363 limits assumed): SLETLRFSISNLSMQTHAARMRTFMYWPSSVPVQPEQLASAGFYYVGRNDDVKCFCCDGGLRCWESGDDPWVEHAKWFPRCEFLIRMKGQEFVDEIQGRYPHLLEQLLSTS
# test method notes: cIAP1-BIR3 fluorescence polarization binding assay
# condition info: FP, probe AbuRPFK-5FAM (SM5F) 5 nM, cIAP1-BIR3 15 nM, 60 min at 25° C.
pIC50: −log10 of the molar value.

smiles text	pIC50
CN[C@@H](C)C(=O)N[C@H](C(=O)N1CCC[C@H]1C(=O)N[C@@H]1CCCc2c(OCCN3CCN(CCOc4cccc5c4CCC[C@H]5NC(=O)[C@@H]4CCCN4C(=O)[C@@H](NC(=O)[C@H](C)NC)C4CCCCC4)CC3)cccc21)C1CCCCC1	8.00 to 9.00

Consider the additional compound presented here.
Find pIC50 (cIAP1-BIR3 (Homo sapiens, UniProt Q13490)) for the entry CN[C@@H](C)C(=O)N[C@H](C(=O)N1CCC[C@H]1C(=O)N[C@@H]1CCCc2c(-c3ccc(-c4cccc5c4CCC[C@H]5NC(=O)[C@@H]4CCCN4C(=O)[C@@H](NC(=O)[C@H](C)NC)C4CCCCC4)cc3)cccc21)C1CCCCC1
8.00 to 9.00

====

# system tested: cIAP1-BIR3 (Homo sapiens)
# Construct: cIAP1-BIR3
# test method notes: cIAP1-BIR3 fluorescence polarization binding assay
# condition info: FP, probe AbuRPFK-5FAM (SM5F) 5 nM, cIAP1-BIR3 15 nM, 60 min at 25° C.
pIC50: −log10 of the molar value.
metric name: pIC50

smiles text	metric name	result value
CN[C@@H](C)C(=O)N[C@H](C(=O)N1CCC[C@H]1C(=O)N[C@@H]1CCCc2c(-c3cccc4c3CCC[C@H]4NC(=O)[C@@H]3CCCN3C(=O)[C@@H](NC(=O)[C@H](C)NC)C(C)(C)C)cccc21)C(C)(C)C	pIC50	8.00 to 9.00

Next up:
Item CN[C@@H](C)C(=O)N[C@H](C(=O)N1CCC[C@H]1C(=O)N[C@@H]1CCCc2c(OCCOCCOc3cccc4c3CCC[C@H]4NC(=O)[C@@H]3CCCN3C(=O)[C@@H](NC(=O)[C@H](C)NC)C(C)C)cccc21)C(C)C with cIAP1-BIR3 (Homo sapiens) - pIC50?
8.00 to 9.00

====

# system tested: cIAP2-BIR3 (Homo sapiens)
# Construct: cIAP2-BIR3
# test method notes: cIAP2-BIR3 fluorescence polarization binding assay
# condition info: FP, probe AbuRPFK-5FAM (SM5F) 5 nM, cIAP2-BIR3 80 nM, 60 min at 25° C.
# Excerpt: IAPs are one main cause of cancer development and may result from overexpression of anti-apoptotic proteins. This protocol establishes three binding assays for […] Bir3 domain, cIAP1 and cIAP2 using FP (fluorescence polariation) technology. The fluorescence probe used is a synthetic peptide conjugated to 5-carboxyfluorescein (AbuRPFK-5FAM). The fluorescence polarization value (mP) was detected by Envision, which was used to reflect the binding degree of protein and fluorescent marker. • a. […]
metric name: IC50

Examples from the recorded data:
smiles text	result value
CN[C@@H](C)C(=O)N[C@H](C(=O)N1CCC[C@H]1C(=O)N[C@@H]1CCc2c(-c3cccc4c3CC[C@H]4NC(=O)[C@@H]3CCCN3C(=O)[C@@H](NC(=O)[C@H](C)NC)C3CCOCC3)cccc21)C1CCOCC1	10 to 100 nM
CN[C@@H](C)C(=O)N[C@H](C(=O)N1CCC[C@H]1C(=O)N[C@@H]1CCCc2c(-c3ccc(-c4cccc5c4CCC[C@H]5NC(=O)[C@@H]4CCCN4C(=O)[C@@H](NC(=O)[C@H](C)NC)C(C)(C)C)cc3)cccc21)C(C)(C)C	1 to 10 nM
CC[C@H](NC(=O)[C@H](C)NC)C(=O)N1CCC[C@H]1C(=O)N[C@@H]1CCCc2c(-c3cccc4c3CCC[C@H]4NC(=O)[C@@H]3CCCN3C(=O)[C@H](CC)NC(=O)[C@H](C)NC)cccc21	1 to 10 nM

API: the following record is the query input.
Which IC50 reading was recorded for the molecule CN[C@@H](C)C(=O)N[C@H](C(=O)N1CCC[C@H]1C(=O)N[C@@H]1CCCc2c(Oc3cccc4c3CCC[C@H]4NC(=O)[C@@H]3CCCN3C(=O)[C@@H](NC(=O)[C@H](C)NC)C3CCCCC3)cccc21)C1CCCCC1 ?
10 to 100 nM

====

# system tested: XIAP-BIR3 (Homo sapiens)
# Construct: XIAP-BIR3; purchased Reaction Biology APT-11-374
# Sequence (P98170 241-356 limits assumed): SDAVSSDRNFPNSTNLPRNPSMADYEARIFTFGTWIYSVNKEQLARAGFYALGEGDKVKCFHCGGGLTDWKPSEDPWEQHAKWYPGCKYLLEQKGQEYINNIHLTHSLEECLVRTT
# test method notes: XIAP-BIR3 fluorescence polarization binding assay
# condition info: FP, probe AbuRPFK-5FAM (SM5F) 5 nM, XIAP-BIR3 40 nM, 60 min at 25° C.
pIC50: −log10 of the molar value.
metric name: pIC50

molecule	system tested	pIC50
CN[C@@H](C)C(=O)N[C@H](C(=O)N1CCC[C@H]1C(=O)N[C@@H]1CCCc2c(Nc3cccc4c3CCC[C@H]4NC(=O)[C@@H]3CCCN3C(=O)[C@@H](NC(=O)[C@H](C)NC)C3CCCCC3)cccc21)C1CCCCC1 [Compound VI]	XIAP-BIR3 (Homo sapiens)	7.00 to 8.00
CN[C@@H](C)C(=O)N[C@H](C(=O)N1CCC[C@H]1C(=O)N[C@@H]1CCCc2c(-c3cccc(-c4cccc5c4CCC[C@H]5NC(=O)[C@@H]4CCCN4C(=O)[C@@H](NC(=O)[C@H](C)NC)C4CCCCC4)c3)cccc21)C1CCCCC1 [III-A]	XIAP-BIR3 (Homo sapiens)	7.00 to 8.00
CN[C@@H](C)C(=O)N[C@H](C(=O)N1CCC[C@@H]1C(=O)N[C@@H]1CCCc2ccc(-c3ccc(-c4ccc5c(c4)[C@H](NC(=O)[C@@H]4CCCN4C(=O)[C@@H](NC(=O)[C@H](C)NC)C4CCCCC4)CCC5)cc3)cc21)C1CCCCC1 [Compound III-M]	XIAP-BIR3 (Homo sapiens)	< 6.00

Request the reported pIC50 associated with CN[C@@H](C)C(=O)N[C@H](C(=O)N1C[C@@H](O)C[C@H]1C(=O)N[C@@H]1CCCc2c(-c3cccc4c3CCC[C@H]4NC(=O)[C@@H]3C[C@H](O)CN3C(=O)[C@@H](NC(=O)[C@H](C)NC)C3CCCCC3)cccc21)C1CCCCC1 [Compound V-L]
7.00 to 8.00

====

# system tested: cIAP2-BIR3 (Homo sapiens, UniProt Q13489)
# Construct: cIAP2-BIR3
# Sequence (Q13489 238-349 limits assumed): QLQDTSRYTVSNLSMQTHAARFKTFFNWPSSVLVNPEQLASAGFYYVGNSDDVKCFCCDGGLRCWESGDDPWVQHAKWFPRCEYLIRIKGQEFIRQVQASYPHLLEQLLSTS
# test method notes: cIAP2-BIR3 fluorescence polarization binding assay
# condition info: FP, probe AbuRPFK-5FAM (SM5F) 5 nM, cIAP2-BIR3 80 nM, 60 min at 25° C.
# Text: IAPs are one main cause of cancer development and may result from overexpression of anti-apoptotic proteins. This protocol establishes three binding assays for […] Bir3 domain, cIAP1 and cIAP2 using FP (fluorescence polariation) technology. The fluorescence probe used is a synthetic peptide conjugated to 5-carboxyfluorescein (AbuRPFK-5FAM). The fluorescence polarization value (mP) was detected by Envision, which was used to reflect the binding degree of protein and fluorescent marker. • a. […]
The entries below come with measured IC50 values attached.

Example entries begin here.
compound	system tested	IC50
CN[C@@H](C)C(=O)N[C@H](C(=O)N1CCC[C@H]1C(=O)N[C@@H]1CCc2c(OCCOCCOc3cccc4c3CC[C@H]4NC(=O)[C@@H]3CCCN3C(=O)[C@@H](NC(=O)[C@H](C)NC)C3CCCCC3)cccc21)C1CCCCC1 [Compound II-F]	cIAP2-BIR3 (Homo sapiens, UniProt Q13489)	10 to 100 nM
CN[C@@H](C)C(=O)N[C@H](C(=O)N1C[C@@H](O)C[C@H]1C(=O)N[C@@H]1CCCc2c(-c3cccc4c3CCC[C@H]4NC(=O)[C@@H]3C[C@H](O)CN3C(=O)[C@@H](NC(=O)[C@H](C)NC)C3CCCCC3)cccc21)C1CCCCC1 [Compound V-L]	cIAP2-BIR3 (Homo sapiens, UniProt Q13489)	10 to 100 nM
CN[C@@H](C)C(=O)N[C@H](C(=O)N1CCC[C@H]1C(=O)N[C@@H]1CCCc2c(OCC#CCOc3cccc4c3CCC[C@H]4NC(=O)[C@@H]3CCCN3C(=O)[C@@H](NC(=O)[C@H](C)NC)C3CCCCC3)cccc21)C1CCCCC1 [Compound IV-B]	cIAP2-BIR3 (Homo sapiens, UniProt Q13489)	10 to 100 nM

What value of measured IC50 is listed for CN[C@@H](C)C(=O)N[C@H](C(=O)N1CCC[C@H]1C(=O)N[C@@H]1CCCc2c1cccc2N1CC2CN(c3cccc4c3CCC[C@H]4NC(=O)[C@@H]3CCCN3C(=O)[C@@H](NC(=O)[C@H](C)NC)C3CCCCC3)CC2C1)C1CCCCC1 (some centres unmarked) [Compound VIII] ?
1 to 10 nM

Next compound: CN[C@@H](C)C(=O)N[C@H](C(=O)N1CCC[C@H]1C(=O)N[C@@H]1CCCc2c(-c3cccc4c3CCC[C@H]4NC(=O)[C@@H]3CCCN3C(=O)[C@@H](NC(=O)[C@H](C)NC)C(C)(C)C)cccc21)C(C)(C)C [Compound V-J]
10 to 100 nM

What do you get for CN[C@@H](C)C(=O)N[C@H](C(=O)N1CCC[C@H]1C(=O)N[C@@H]1CCCc2c(OCCOCCOc3cccc4c3CCC[C@H]4NC(=O)[C@@H]3CCCN3C(=O)[C@@H](NC(=O)[C@H](C)NC)C(C)C)cccc21)C(C)C [Compound II-A] ?
1 to 10 nM

Another compound to look at: CN[C@@H](C)C(=O)N[C@H](C(=O)N1CCC[C@H]1C(=O)N[C@@H]1CCCc2c(OCCN3CCN(CCOc4cccc5c4CCC[C@H]5NC(=O)[C@@H]4CCCN4C(=O)[C@@H](NC(=O)[C@H](C)NC)C4CCCCC4)CC3)cccc21)C1CCCCC1 [Compound IX]
10 to 100 nM

Do the same for CN[C@@H](C)C(=O)N[C@H](C(=O)N1CCC[C@H]1C(=O)N[C@@H]1CCCc2c(Oc3cccc4c3CCC[C@H]4NC(=O)[C@@H]3CCCN3C(=O)[C@@H](NC(=O)[C@H](C)NC)C(C)C)cccc21)C(C)C [Compound X-B] please
10 to 100 nM
